B1: Osa-1-4 twister ribozyme (parent)
chain: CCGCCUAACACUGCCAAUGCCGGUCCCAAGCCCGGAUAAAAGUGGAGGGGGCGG

Variants of: B1
ASSAY METHOD TEXT: self-cleavage, relative activity (ratio to wild type); higher = more cleavage; co-transcriptional

MUTATION KEY	self-cleavage
G23A G51A	0.09
C33A U18G	0.17
G45C U18G	0.09
C25U C27G	0.06
G44U G48C	0.07
C32U G44C	0.09
A17C C52A	0.87
A16G C32A	0.08
A41G C14A	0.07
A28C G19C	0.23
A16G C27G	0.15
A29C A40C	0.02
A36G C32U	0.17
C33A C52A	0.11
G22C G44U	0.07
C52G G44U	0.9
A17U A40C	0.09
C21U G42A	0.51
A17G U43A	0.81
A28U G23U	0.07
C20G G35A	0.27
A28C A29U	0.09
C15A G19U	0.82
A46U G22U	0.06
A46G C32U	0.04
A39U G44A	0.77
A39U C25G	0.07
G19C G22U	0.03
C27G U18C	0.09
A41C G54C	0.85
A16C G51A	0.53
A29U A40U	0.06
G48A U24C	0.04
A16C G23C	0.04
C26U G13C	0.02
A17U A36G	1.05
A29C G42A	0.03
A40C C21G	0.02
C11U G49U	0.09
C11G G47C	0.04
G47U G48U	0.05
A10C G49U	0.02
G45U U12G	0.07
C52U G50A	0.97
A10G C52U	0.95
G54A	1

# credit: the RNAGym collection of RNA variant scans (doi:10.1002/anie.201605470)
